- experimental-target: rat MCH-1 (Rattus norvegicus, UniProt P97639)
- Sequence (P97639 whole entry): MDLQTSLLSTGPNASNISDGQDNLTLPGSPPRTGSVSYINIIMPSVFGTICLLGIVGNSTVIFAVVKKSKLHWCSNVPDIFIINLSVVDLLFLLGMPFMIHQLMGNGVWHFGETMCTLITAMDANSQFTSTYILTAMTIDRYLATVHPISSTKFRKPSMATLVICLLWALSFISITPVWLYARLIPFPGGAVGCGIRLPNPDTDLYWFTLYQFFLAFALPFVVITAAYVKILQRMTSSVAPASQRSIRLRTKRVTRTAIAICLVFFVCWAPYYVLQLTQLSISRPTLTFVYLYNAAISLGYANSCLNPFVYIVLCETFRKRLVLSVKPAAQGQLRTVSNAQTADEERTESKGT
- protocol: Radioligand binding assay at cloned rat MCH1 receptor ([3H] Compound A)
- Set-up: host or cells: Peak rapid 293 (Peakr293) cells, transient calcium phosphate transfection, membranes
- condition-notes: cloned rat MCH1 receptor; 0.08 nM [3H] Compound A; Peakr293 cell membranes; read-out: Ki (nM) rMCH1
# label = 1 if Ki < 100 nM else -1

INSERT INTO results (test_smiles, label_value) VALUES
  ('CC(C)C(=O)Nc1cccc(C2CCN(CCCC/C(=N\Nc3ccccc3)c3ccc([N+](=O)[O-])cc3)CC2)c1', 1),
  ('CC(C)C(=O)Nc1cccc(C2CCN(CCCCC(=O)c3ccccc3Cl)CC2)c1', 1),
  ('CC(C)C(=O)Nc1cccc(C2CCN(CCCCCCNC(=O)c3cccnc3Oc3ccccc3)CC2)c1', -1),
  ('CC(C)C(=O)Nc1cccc(C2CCN(CCCc3c(-c4ccc(Cl)cc4)n(C)c4ccccc34)CC2)c1', 1),
  ('CC(C)C(=O)Nc1cccc(C2CCN(CC[C@H](NS(C)(=O)=O)c3ccccc3)CC2)c1', -1);

Ask: Problem: For the molecule `CC(C)C(=O)Nc1cccc(C2CCN(CCCc3c(-c4cccc([N+](=O)[O-])c4)n(-c4ccccc4)c4ccccc34)CC2)c1` , is Ki under 100 nM?
Result: -1
